Biological target: Clostridium botulinum neurotoxin serotype A truncated light chain (residues 1 to 424), Balc424 (Clostridium botulinum, UniProt P0DPI0)
Sequence (P0DPI0 1-424 limits assumed): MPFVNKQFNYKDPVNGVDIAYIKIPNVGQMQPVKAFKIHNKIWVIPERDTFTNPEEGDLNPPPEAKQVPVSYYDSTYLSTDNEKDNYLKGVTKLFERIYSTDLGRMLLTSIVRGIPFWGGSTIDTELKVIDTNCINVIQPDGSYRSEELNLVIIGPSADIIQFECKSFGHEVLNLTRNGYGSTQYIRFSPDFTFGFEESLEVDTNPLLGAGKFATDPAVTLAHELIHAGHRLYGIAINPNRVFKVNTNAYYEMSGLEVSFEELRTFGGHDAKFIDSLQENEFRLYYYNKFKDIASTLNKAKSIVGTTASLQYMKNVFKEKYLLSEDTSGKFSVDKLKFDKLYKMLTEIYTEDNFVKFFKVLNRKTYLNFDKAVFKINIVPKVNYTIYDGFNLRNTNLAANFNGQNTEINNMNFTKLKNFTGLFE
Test: biochemical
Details: 37°C, 30 min
Where a SMILES comes first, the peptide text is derived from it.
property: pIC50
Please express pIC50 as -log10 of the molar concentration.

Look up and report measured pIC50 for this entry: CSCC[C@H](NC(=O)[C@H](CCCCN)NC(=O)[C@@H](NC(=O)[C@H](C)NC(=O)[C@H](CCCNC(=N)N)NC(=O)[C@@H](N)CCC(N)=O)[C@@H](C)O)C(N)=O [QRATKM] (H-QRATKM-NH2)
3.88
